target: TDO2 (Homo sapiens, UniProt P48775); construct: decreased levels of NFK in SW48 cells (high TDO expressing cells); experiment: TDO2 cell assay (NFK GreenScreen, SW48 cells); assay type: cell-based; conditions: SW48 cells (high TDO expressing), 200 uM tryptophan, 24 hours; Table 3; read-out: TDO2 Cell Fluor EC50
Sequence (P48775 whole entry): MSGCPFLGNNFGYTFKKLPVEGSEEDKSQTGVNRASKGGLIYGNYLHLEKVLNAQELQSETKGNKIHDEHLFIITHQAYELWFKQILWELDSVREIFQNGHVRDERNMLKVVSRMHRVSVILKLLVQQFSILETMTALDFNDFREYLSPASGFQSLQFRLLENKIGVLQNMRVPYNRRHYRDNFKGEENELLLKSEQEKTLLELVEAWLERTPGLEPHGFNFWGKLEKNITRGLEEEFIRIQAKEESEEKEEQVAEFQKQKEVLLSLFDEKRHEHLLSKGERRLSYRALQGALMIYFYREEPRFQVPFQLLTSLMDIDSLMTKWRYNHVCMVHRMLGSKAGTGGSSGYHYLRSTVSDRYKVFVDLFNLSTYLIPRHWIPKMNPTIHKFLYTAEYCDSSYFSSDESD
Observable: EC50 (µM)

Worked cases, EC50 given:
compound="O[C@H]1c2ccncc2CC[C@@H]1[C@H]1c2ccccc2-c2cncn21 (single isomer, unassigned) [Example 08e]" value_measured=0.23
compound="O=c1cccc2n1CCC(C1c3ccccc3-c3cncn31)C2O (single isomer, unassigned) [Example 29b]" value_measured=0.67
compound="OC(C1c2ccccc2-c2cncn21)C1(F)CC1 (single isomer, unassigned) [Example 154c]" value_measured=5.4

1: CN(C)S(=O)(=O)N1CC[C@H]([C@H]2c3ccccc3-c3cncn32)[C@@H](O)C1 [Example 78a]
2: N#Cc1cnn2c1C(O)C(C1c3ccccc3-c3cncn31)CC2 (single isomer, unassigned) [Example 156b]
3: OC1c2cccnc2CCC1C1c2ccccc2-c2cncn21 (single isomer, unassigned) [Example 31f]
4: CC(=O)N1CCC(C2c3ccccc3-c3cncn32)C(O)C1 (single isomer, unassigned) [Example 09b]
Q: Order these by EC50, descending, and give the full ranking. Put the labels in the requested order and write them down.
Ans: 1, 4, 2, 3

I: OC1C(C2c3ccc(F)cc3-c3cncn32)CC12CCOCC2 (single isomer, unassigned) [Example 109b]
II: OC(C1CC1)C1c2ccccc2-c2cncn21 (single isomer, unassigned) [Example 52b]
Q: Thinking about recorded EC50 values, which is higher, I or II ? Identify your selection by its label.
Ans: II
(II: 23.7 µM, I: 3.9 µM)

1: CC1(C)OC(C)(C)C(C2c3ccccc3-c3cncn32)C1O (single isomer, unassigned) [Example 84a]
2: N#CCN1CCC(O)C(C2c3ccccc3-c3cncn32)C1 (single isomer, unassigned) [Example 58a]
3: OC1CCCCC1C1c2ccc(F)cc2-c2cncn21 (single isomer, unassigned) [Example 25d]
4: N[C@@H]1COC[C@@H]1[C@H]1c2ccccc2-c2cncn21 (single isomer, unassigned) [Example 32c]
Q: Endpoint returns the given compounds ordered by ascending EC50. Put the labels in the requested order and write them down.
Ans: 3, 2, 4, 1
(3: 0.048 µM, 2: 0.36 µM, 4: 5.2 µM, 1: 14 µM)

----------
molecular target: TDO2 (Homo sapiens, UniProt P48775); construct: decreased levels of NFK in SW48 cells (high TDO expressing cells); assay: TDO2 cell assay (NFK GreenScreen, SW48 cells); type: cell-based; settings: SW48 cells (high TDO expressing), 200 uM tryptophan, 24 hours; Table 3; read-out: TDO2 Cell Fluor EC50
Observable: EC50 (µM)

Worked cases, EC50 given:
molecule="Nc1ccc2c(n1)CCC(C1c3ccccc3-c3cncn31)C2O (single isomer, unassigned) [Example 121e]" target_entity="TDO2 (Homo sapiens, UniProt P48775)" value_measured=16
molecule="OC1COCCC1C1c2ccc(F)cc2-c2cncn21 (single isomer, unassigned) [Example 33c]" target_entity="TDO2 (Homo sapiens, UniProt P48775)" value_measured=3.5
molecule="OC1(C2c3ccccc3-c3cncn32)CCCc2ccncc21 (single isomer, unassigned) [Example 141a]" target_entity="TDO2 (Homo sapiens, UniProt P48775)" value_measured=17

1: CCS(=O)(=O)N1CCC(O)C(C2c3ccccc3-c3cncn32)C1 (single isomer, unassigned) [Example 15c]
2: Cc1ncc2c(n1)CCC(C1c3ccccc3-c3cncn31)C2O (single isomer, unassigned) [Example 124a]
Q: Pick one, 1 or 2 : lowest reported EC50. Identify your selection by its label.
Ans: 1
(1: 7.5 µM, 2: 16 µM)
